Task for the reader: assign each of the following molecules its reported GI50.
# Test system: NCI-H23
# ASSAY TEXT: NCI tumour cell line growth inhibition, 48 h
Calls of active or inactive are those of the source. No stated cut-off is given here; in the data, active = GI50 up to about 1.1 µM and inactive = higher.

The cases that follow already have their GI50 on record.
[[record]]
molecule = "C#C[C@]1(O)CC[C@H]2[C@@H]3CCC4=C/C(=N/OCCN(C)C)CC[C@]4(C)[C@H]3CC[C@@]21C"
quantity = "GI50"
observed_result = "36.1 µM (inactive)"

[[record]]
molecule = "C[C@]12CCC3c4ccc(O)cc4CC[C@H]3C1CC(=O)NC2=O (stereo not given in full)"
quantity = "GI50"
observed_result = "> 10 µM (inactive)"

[[record]]
molecule = "Sc1ncnc2c1ncn2Cc1ccco1"
quantity = "GI50"
observed_result = "> 100 µM (inactive)"

[[record]]
molecule = "O=C(N/C(=C\\c1ccc(Br)cc1)c1nc2ccccc2[nH]1)c1ccccc1"
quantity = "GI50"
observed_result = "17.1 µM (inactive)"

[[record]]
molecule = "CCCCCCCCCCCCOCCCOP(=O)([O-])OCC[N+](C)(C)C"
quantity = "GI50"
observed_result = "67.6 µM (inactive)"


Go through the list and state GI50 for each entry.
1. CSC1(SC2=NCCN2)SC2(NCCN2)S1
2. N#Cc1nc(COCCOCc2ccc(F)cc2)oc1N
3. CC(=O)Nc1ccc(C(=O)NN2C(=O)C(Cl)C2c2cccc([N+](=O)[O-])c2)cc1 (stereo not given)
4. CCOC(=O)C(NC(C)=O)(Nc1ccc(S(N)(=O)=O)cc1)C(F)(F)F (stereo not given)
5. N#CC1C(=O)C(=O)N(c2ccccc2)C1=O (stereo not given)
6. Clc1cc2nsnc2c(Cl)n1

Response:
["16.3 µM (inactive)", "> 100 µM (inactive)", "> 100 µM (inactive)", "> 100 µM (inactive)", "> 100 µM (inactive)", "19.1 µM (inactive)"]

// provenance: ChEMBL document CHEMBL1201862
